Below, each of the molecules is paired with its reported growth value.
Test system: NCI-H226 lung
Test details: NCI-60 one-dose screen, 48 h (100 = growth as untreated, 0 = no growth, -100 = all killed)
Condition parameters: 10 µM unless noted
Protocol: Growth inhibition of the NCI-H226 human Non-Small Cell Lung tumor cell line is measured as a screen for anti-cancer activity. Cells are grown in 96 well plates and exposed to the test compound for 48 hours. Compounds are tested at a single concentration, which is 10^-5 M for most compounds. The reported endpoint is percent growth (GI% or GIPRCNT), where numbers from 0 - 100% represent growth inhibition, and numbers from -100% - 0 represent cell death. […]
The panel holds about 83,000 compounds, 20% with a hit somewhere; the sample as a whole holds those more often.
Readout type: growth (%)

>>> print(df.to_string())
                                   molecule  assayed_system  observed
0  Brc1ccc2c(c1)c(-c1nc(-c3c[nH]c4ncccc34)cs1)cn2CCN1CCOCC1   NCI-H226 lung      60.2
1  C[n+]1c(/C=C/c2ccc(N(CCCl)CCCl)cc2)sc2ccccc21   NCI-H226 lung      73.7
2  C#C[C@]1(OC(=O)CCCCCC)CC[C@H]2[C@@H]3CCC4=CC(=O)CC[C@@H]4[C@H]3CC[C@@]21C   NCI-H226 lung      54.8
3  CN1C(=O)C(=Cc2cn(Cc3ccccc3)c3ccccc23)C(=O)N(C)C1=O   NCI-H226 lung       -71
4  CCCCCN(CCCCC)CC(O)c1cc(Cl)ccc1OC (centres undefined)   NCI-H226 lung      65.2
5  CCCC[C@H](NC(=O)[C@H]1CCCCN1C)C(=O)N(C)[C@H](C[C@@H](OC(C)=O)c1nc(C(=O)N[C@@H](Cc2ccccc2)C[C@H](C)C(=O)OCC)cs1)C(C)C   NCI-H226 lung      32.8
6  CC1(C)[C@H](O)[C@H](F)C[C@@]2(C)Oc3ccc(C(=O)Nc4ccc5c(c4)NC(=O)C54CCN(CCCCC#N)CC4)cc3C[C@H]12   NCI-H226 lung      69.9
7             CCOc1ccccc1C(=O)OCC(Cl)(Cl)Cl   NCI-H226 lung       101
8  CCCOC(=O)N[C@H]1CCc2c(Br)c(OC)c(OC)c(OC)c2-c2ccc(SC)c(=O)cc21   NCI-H226 lung      15.4
